# test.protocol: Growth inhibition of human SW620 cells assessed as cell growth at 10^-5 M incubated for 48 hrs by sulforhodamine B assay
# Format: functional
# stated.conditions: SW-620, 48 h, read-out: Activity
parameter: growth at 10 µM (%)
Give the number; % is assumed, so skip it.

Clc1ccc(-c2nc(Nc3ccc(-c4nc5ccccc5[nH]4)cc3)nc(N3CCOCC3)n2)cc1 ... -79

Requested field: growth at 10 µM. Item: c1ccc(-c2nc(Nc3ccc(-c4nc5ccccc5[nH]4)cc3)nc(N3CCOCC3)n2)cc1
-77

Requested field: growth at 10 µM. Item: Fc1ccc(-c2nc(Nc3ccc(-c4nc5ccccc5[nH]4)cc3)nc(N3CCOCC3)n2)cc1
-47

Requested field: growth at 10 µM. Item: c1ccc2[nH]c(-c3ccc(Nc4nc(N5CCCCC5)nc(N5CCOCC5)n4)cc3)nc2c1
-29

Cited source: ChEMBL document CHEMBL3808334
